# assayExplanation: Relaxivity measurements at 1.41T and 37 °C
# Assay type: physicochemical
# measurementParameters: 4.5% w/v HSA (1.4T)
recordedMetric: r1 relaxivity (mM⁻¹ s⁻¹)

### Prompt If you can, please state the reported r1 relaxivity value of O=C([O-])CN1CCN(CC(=O)[O-])CCN(CC(=O)[O-])CCN(CC(=O)[O-])CC1.[Gd+3] [[GdDOTA]^−, reference compound] .
### Response 4.1

### Prompt For the compound shown here, CC[C@H]1CN(CC(=O)[O-])[C@@H](CC)CN(CC(=O)[O-])[C@@H](CC)CN(CC(=O)[O-])[C@@H](CC)CN1CC(=O)[O-].[Gd+3] [[GdL2B]^−] , give the reported r1 relaxivity.
### Response 4.8

### Prompt Bench note: what r1 relaxivity did CC[C@@H]1CN(CC(=O)[O-])[C@H](CC)CN(CC(=O)[O-])[C@H](CC)CN(CC(=O)[O-])[C@H](CC)CN1CC(=O)[O-].[Gd+3] [[Gd(R)L2A]^−] show?
### Response 4.5

### Prompt May I ask what r1 relaxivity has been recorded for C[C@H]1CN(CC(=O)[O-])[C@@H](C)CN(CC(=O)[O-])[C@@H](C)CN(CC(=O)[O-])[C@@H](C)CN1CC(=O)[O-].[Gd+3] [[GdL1]^−] ?
### Response 4.5

Values were extracted from paper PMC5829242.
